The entries below are paired with their reported EC50.
test system: influenza A H3N2 subtype; assay: Antiviral assay, inhibition of virus-induced cytopathic effect, MDCK cells; assay type: cell-based; conditions: Influenza A virus, H3N2, MDCK
Just the number in µM, nothing appended.

Prompt line: Consider the compound NC(=O)c1ncn([C@@H]2O[C@H](CO)[C@@H](O)[C@H]2O)n1 [Ribavirin] and give its measured EC50.
Response line: 9

// moving on: another record for EC50
Prompt line: Consider the compound CCC(CC)O[C@@H]1C=C(C(=O)O)C[C@H](N)[C@H]1NC(C)=O [Oseltamivir-carboxylate] and give its measured EC50.
Response line: 1.7

###

tested on: herpes simplex virus-1(KOS); assay: microbe, parasite or virus in culture; assay type: cell-based; conditions: Human alphaherpesvirus 1, HEL, virus d, HEL cells
recorded-metric: pEC50
In textbook form, pEC50 equals minus log to base ten of the concentration in mol/L.

Some solved entries appear below for comparison.
Prompt line: Consider the compound "O=c1[nH]c(=O)n([C@H]2C[C@H](O)[C@@H](CO)O2)cc1/C=C/Br" and give its measured pEC50.
Response line: 7.10

Prompt line: How about this compound: "NC(=O)c1ncn([C@@H]2O[C@H](CO)[C@@H](O)[C@H]2O)n1"
Response line: 5.00

// moving on: another record for pEC50
Prompt line: Consider the compound "Nc1nc(O)c2ncn(COC(CO)CO)c2n1" and give its measured pEC50.
Response line: 7.52
